Answer each item with its documented %Inh.
system: NDR1; construct: gene STK38; conditions: concentration: 1 μM, replicates: in singlicate; n = 1;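 also: KINOMEscan kinase panel screen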
Respond numerically; units are % and should not be typed.

Bench note: what %Inh did `Cc1ccc(-c2cc(-c3c[nH]nc3-c3ccccn3)ccn2)cc1` show?
20

Bench note: what %Inh did COc1cc2ncn(-c3cc(OCC4CCCO4)c(C(N)=O)s3)c2cc1OC (stereo not shown) show?
12

Bench note: what %Inh did `Fc1cccc(COc2nnc(-c3ccc4c(c3)CCO4)o2)c1` show?
0

Bench note: what %Inh did `Cc1ccc(NC(=O)Nc2cccc(Cl)c2)cc1-c1ccc(C(=O)Nc2ccncc2)cc1` show?
25
